Assayed system: T1, Scl-70 (UniProt P11387 1-765)
T1 sequence: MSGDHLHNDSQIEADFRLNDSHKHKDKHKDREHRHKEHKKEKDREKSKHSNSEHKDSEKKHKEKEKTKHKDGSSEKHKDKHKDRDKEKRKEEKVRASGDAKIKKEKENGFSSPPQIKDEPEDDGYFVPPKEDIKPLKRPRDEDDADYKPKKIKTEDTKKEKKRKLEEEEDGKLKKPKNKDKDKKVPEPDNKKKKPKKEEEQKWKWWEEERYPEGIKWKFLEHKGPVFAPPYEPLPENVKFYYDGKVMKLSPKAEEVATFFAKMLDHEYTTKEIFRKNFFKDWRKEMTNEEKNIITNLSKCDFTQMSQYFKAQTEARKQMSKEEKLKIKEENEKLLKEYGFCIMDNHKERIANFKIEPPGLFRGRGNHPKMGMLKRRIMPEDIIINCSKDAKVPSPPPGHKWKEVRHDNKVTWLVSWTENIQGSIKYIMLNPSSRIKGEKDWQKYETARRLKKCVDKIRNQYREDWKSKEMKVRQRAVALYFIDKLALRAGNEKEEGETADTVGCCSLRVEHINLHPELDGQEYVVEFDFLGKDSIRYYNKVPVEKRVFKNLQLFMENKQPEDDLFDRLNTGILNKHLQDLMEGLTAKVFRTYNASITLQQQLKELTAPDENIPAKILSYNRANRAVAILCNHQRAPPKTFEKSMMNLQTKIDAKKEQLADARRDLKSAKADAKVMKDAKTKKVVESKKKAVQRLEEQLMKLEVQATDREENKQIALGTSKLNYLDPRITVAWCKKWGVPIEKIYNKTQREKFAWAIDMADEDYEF
Assay notes: ELISA, LogAUC grade
Metric: binding result

CH555 (antibody, V domains shown, also called CH235.10) VH: QVQLVQSGATVKKPRASVTLSCRTSGYNFIDYFIHWVRRAPGQRLEVMGYIDPSRGRPDYAPNFRDRVSLYRDTSMSIVYLDLRDLTPDDTAIYYCVRSEGTEGTVLHYDHWGPGTRVTVSP VL: EIVLTQSPDTLSASPGERVTLSCRASQSVGTKVAWYRHVRGQPPRLLIYGASTRAAGIPARFSGGGSGTNFTLIINNFQSEDFAEYLCQQYKSWWTFGQGTKVDNK : no binding
CH557 (antibody, V domains shown, also called CH235.12; CH557_4A/293i) VH: QVRLAQYGGGVKRLGATMTLSCVASGYTFNDYYIHWVRQAPGQGFELLGYIDPANGRPDYAGALRERLSFYRDKSMETLYMDLRSLRYDDTAMYYCVRNVGTAGSLLHYDHWGSGSPVIVSS VL: EIVLTQSPATLSASPGERVTLTCRASRSVRNNVAWYQHKGGQSPRLLIYDASTRAAGVPARFSGSASGTEFTLAISNLESEDFTVYFCLQYNNWWTFGQGTRVDIK : no binding
CH241 (antibody, V domains shown) VH: QVQLVQSGAAVKKPGASVRVSCKASGYTFTSSHIHWVRQAPGQGPEWMGMIDPSVGRPTTAGKFQGRVTMTRDRYTSTAYMDLSSLRSEDTAVYYCARSVETTGSLLYFDYWGQGTLITVSS VL: EIVLTQSPATLSVSPGERATLSCRASQSVRSNIAWYQQKPGQAPRLLIHGASTRATGIPGRFSGSGSGPEFTLAISSVQSEDFAVYYCQQYNDWWTFGQGTKVEIK : no binding
